tested on: Danio rerio Tg(wt1b:EGFP) embryo, pronephros; assay: glomerular separation, fold change vs DMSO control; higher = glomeruli further apart (abnormal); details: 25 µM; exposure: 24-48 hpf
Counter-ions that a name gives are not always drawn.
Recorded glomerular separation by entry

The cases that follow already have their glomerular separation on record.
COMPOUND: CN(Cc1cnc2nc(N)nc(N)c2n1)c1ccc(C(=O)N[C@@H](CCC(=O)O)C(=O)O)cc1 (racemic) [Amethopterin (R,S)]
MEASURED ENDPOINT: glomerular separation
RESULT: 1.29
//
COMPOUND: Clc1cccc(Cl)c1NC1=NCCN1 [Clonidine hydrochloride]
MEASURED ENDPOINT: glomerular separation
RESULT: 0.954
//
COMPOUND: Cc1cccc(C)c1NC(=O)CN1CCN(CCCC(c2ccc(F)cc2)c2ccc(F)cc2)CC1
MEASURED ENDPOINT: glomerular separation
RESULT: 3
//
COMPOUND: O=C(CCNNC(=O)c1ccncc1)NCc1ccccc1 [Nialamide]
MEASURED ENDPOINT: glomerular separation
RESULT: 1.06
//
COMPOUND: CC(C)C(=O)OCC(=O)[C@@]12O[C@H](C3CCCCC3)O[C@@H]1C[C@H]1[C@@H]3CCC4=CC(=O)C=C[C@]4(C)[C@H]3[C@@H](O)C[C@@]12C [Ciclesonide]
MEASURED ENDPOINT: glomerular separation
RESULT: 1.7

Field glomerular separation (entry CN1CCN(CCCN2c3ccccc3Sc3ccc(S(=O)(=O)N(C)C)cc32)CC1 [Thioproperazine dimesylate] ) reads 0.945

Just so you know, measured glomerular separation for C[C@](N)(Cc1ccc(O)c(O)c1)C(=O)O came out at 1.03

CNc1ncnc2c1ncn2[C@@H]1O[C@H](CO)[C@@H](O)[C@H]1O yielded glomerular separation of 0.849

Reported glomerular separation for Nc1nc2ccc(OC(F)(F)F)cc2s1 [Riluzole hydrochloride] was 0.834

Short answer for COc1ccccc1OCC(O)CO (stereo not drawn) : glomerular separation was 1.21

For record CCN(CC)CCN[C@@H](C(=O)OCCC(C)C)c1ccccc1 [Camylofine chlorhydrate] the listed glomerular separation is 0.973

Reported glomerular separation for Cc1cccc(C)c1NC(=O)C1CCCCN1C (stereo not drawn) [Mepivacaine hydrochloride] was 0.751

Short answer for c1cnc(N2CCN(Cc3ccc4c(c3)OCO4)CC2)nc1 [Piribedil hydrochloride] : glomerular separation was 1.01
